Measured melting point accompanies every entry in the list below.

Would you please look over these solved cases?
structure_as_smiles=C[C@H](CNC(=O)COc1cc(C(F)(F)F)c2c(-c3ccccc3)nn(C)c2n1)c1ccccc1 measurement_kind="melting point" result="91 to 93 °C"
structure_as_smiles=COc1ccc([C@H](C)NC(=O)COc2cc(C(F)(F)F)c3c(-c4ccccc4)nn(C)c3n2)cc1 measurement_kind="melting point" result="172 to 174 °C"
structure_as_smiles=Cn1nc(-c2ccccc2)c2c(C(F)(F)F)cc(OCC(=O)N[C@H]3CCc4ccccc43)nc21 measurement_kind="melting point" result="203 to 205.2 °C"
structure_as_smiles=C[C@H](NC(=O)COc1ccc2c(-c3ccccc3)nn(C)c2n1)c1ccccc1 measurement_kind="melting point" result="55 to 56 °C"

Proceeding to the next compound to report its melting point.
# melting point of `Cc1n[nH]c(C)c1[C@H](C)NC(=O)COc1cc(C(F)(F)F)c2c(-c3ccccc3)nn(C)c2n1` = 145 to 147 °C

###

# TESTED_SYSTEM: human orexin 2 receptors (Homo sapiens (Human))
# Sequence (O43614 whole entry): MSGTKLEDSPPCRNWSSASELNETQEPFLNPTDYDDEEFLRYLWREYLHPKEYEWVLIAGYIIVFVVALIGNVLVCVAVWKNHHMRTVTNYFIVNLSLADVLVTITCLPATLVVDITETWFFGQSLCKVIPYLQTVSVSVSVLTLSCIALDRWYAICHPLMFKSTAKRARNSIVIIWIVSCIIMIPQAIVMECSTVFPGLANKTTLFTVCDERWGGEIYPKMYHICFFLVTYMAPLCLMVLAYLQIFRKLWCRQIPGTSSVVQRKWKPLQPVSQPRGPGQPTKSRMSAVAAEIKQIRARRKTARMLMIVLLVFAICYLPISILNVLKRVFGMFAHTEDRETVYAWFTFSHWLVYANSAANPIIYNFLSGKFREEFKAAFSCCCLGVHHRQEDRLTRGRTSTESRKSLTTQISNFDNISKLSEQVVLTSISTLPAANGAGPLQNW
# PROTOCOL_TEXT: Calcium Accumulation in Cells (FLIPR), antagonism of orexin A
# CONDITION_DESCRIPTION: antagonism of orexin A, Cheng-Prusoff corrected; read-out: FLIPR hOx2R Ki
The label is YES for Ki below 600 nM and NO for Ki equal to or exceeding 600 nM.

Previously resolved entries follow.
compound="Cc1cc(OCC(=O)NC(C)c2ccc3c(c2)ncn3C)nc2c1c(C1CC1)nn2C (centres unmarked)" tested_system="human orexin 2 receptors (Homo sapiens (Human))" assigned_category=YES
compound=Cn1nc(-c2ccccc2)c2c(C(F)(F)F)cc(OCC(=O)N[C@H]3CCc4ccccc43)nc21 tested_system="human orexin 2 receptors (Homo sapiens (Human))" assigned_category=YES
compound="COc1ccc(C(C)NC(=O)COc2cc(C)c3c(C4CC4)nn(C)c3n2)cc1F (centres unmarked)" tested_system="human orexin 2 receptors (Homo sapiens (Human))" assigned_category=NO
compound="Cc1nn(C)c(C)c1C(C)NC(=O)COc1cc(C(F)(F)F)c2c(C3CC3)nn(C)c2n1 (centres unmarked)" tested_system="human orexin 2 receptors (Homo sapiens (Human))" assigned_category=YES

Does the reported Ki of `COc1ccc([C@H](C)N(C)C(=O)COc2cc(C)c3c(C4CC4)nn(C)c3n2)cc1` stay below 600 nM?
YES

Does the reported Ki of `Cc1ccc([C@H](C)NC(=O)COc2cc(C(C)C)c3c(C4CC4)nn(C)c3n2)cc1` stay below 600 nM?
YES

Does the reported Ki of `Cc1ccc([C@H](C)NC(=O)COc2nc3c(cc2C)c(C2CC2)nn3C)cc1` stay below 600 nM?
NO

Does the reported Ki of `Cc1ccc([C@H](C)NC(=O)COc2cc(C)c3c(C4CC4)nn(C)c3n2)cc1` stay below 600 nM?
YES

###

# TESTED_SYSTEM: human orexin 1 receptors (Homo sapiens (Human))
# PROTOCOL_TEXT: Calcium Accumulation in Cells (FLIPR), antagonism of orexin A
# CONDITION_DESCRIPTION: antagonism of orexin A, Cheng-Prusoff corrected; read-out: FLIPR hOx1R Ki
Measured log10 Ki accompanies every entry in the list below.
Please interpret these as log10 of Ki where Ki is in nM.

Would you please look over these solved cases?
molecule=Cc1ccc2c(n1)CC[C@@H]2NC(=O)COc1cc(C(F)F)c2c(-c3cc(C)oc3C)nn(C)c2n1 measurement_kind="log10 Ki" numeric_result=1.96
molecule="Cc1ccc(C(C)NC(=O)COc2cc(C(F)(F)F)c3c(C4CC4)nn(C)c3n2)cn1 (stereo not shown)" measurement_kind="log10 Ki" numeric_result=3.20
molecule=C[C@H](CNC(=O)COc1cc(C(F)(F)F)c2c(-c3ccccc3)nn(C)c2n1)c1ccccc1 measurement_kind="log10 Ki" numeric_result=2.94
molecule="Cc1cc(OCC(=O)NC(C)c2nc3ccc(Cl)cc3s2)nc2c1c(C1CC1)nn2C (stereo not shown)" measurement_kind="log10 Ki" numeric_result=2.97
molecule=Cc1ccc([C@H](C)NC(=O)COc2cc(C)c3c(-c4cn(C)cn4)nn(C)c3n2)cc1 measurement_kind="log10 Ki" numeric_result=3.06
molecule=COc1ccc(-c2nn(C)c3nc(OCC(=O)N[C@@H](C)c4ccccc4)cc(C(F)(F)F)c23)cc1 measurement_kind="log10 Ki" numeric_result=2.58
molecule=Cc1cc(OCC(=O)N[C@@H](C)CCc2ccccc2)nc2c1c(C1CC1)nn2C measurement_kind="log10 Ki" numeric_result=3.21
molecule=COc1ccccc1-c1nn(C)c2nc(OCC(=O)N[C@@H](C)c3ccc(C)cc3)ccc12 measurement_kind="log10 Ki" numeric_result=2.12
molecule="Cc1cc(OCC(=O)NC(C)c2nc3ccccc3s2)nc2c1c(C1CC1)nn2C (stereo not shown)" measurement_kind="log10 Ki" numeric_result=2.75
molecule=Cc1ccc(CNC(=O)COc2cc(C(F)(F)F)c3c(-c4ccccc4)nn(C)c3n2)cc1 measurement_kind="log10 Ki" numeric_result=2.93

Proceeding to the next molecule to report its log10 Ki.
Response field log10 Ki (human orexin 1 receptors (Homo sapiens (Human))) for item `Cc1ccc([C@H](C)NC(=O)COc2cc(C)c3c(C(C)C)nn(C)c3n2)cc1` : 2.21

###

# TESTED_SYSTEM: human orexin 1 receptors (Homo sapiens (Human))
# PROTOCOL_TEXT: Calcium Accumulation in Cells (FLIPR), antagonism of orexin A
# CONDITION_DESCRIPTION: antagonism of orexin A, Cheng-Prusoff corrected; read-out: FLIPR hOx1R Ki
pKi: −log10 of the molar value.
Lab note: compare pKi against 6. Equal or greater, write condition met. Smaller, write condition not met.

molecule=Cc1ccc2c(c1)CC[C@@H]2NC(=O)COc1cc(C)c2c(C3CC3)nn(C)c2n1 assigned_category="condition met"
molecule=Cc1ccc([C@H](C)NC(=O)COc2ccc3c(C(C)(C)C)nn(C)c3n2)cc1 assigned_category="condition met"
molecule=Cc1ccc([C@H](C)NC(=O)COc2cc(C)c3c(-c4ccc(C)cn4)nn(C)c3n2)cc1 assigned_category="condition met"
molecule=Cc1ccccc1-c1nn(C)c2nc(OCC(=O)N[C@@H](C)c3ccccc3)cc(C(F)(F)F)c12 assigned_category="condition met"
molecule="Cc1cccc(C(C)NC(=O)COc2cc(C)c3c(C4CC4)nn(C)c3n2)c1 (stereo not shown)" assigned_category="condition not met"

Decide: is the reported value of pKi for `C[C@H](NC(=O)COc1cc(C(F)(F)F)c2c(-c3ccccc3)nn(C)c2n1)c1ccccc1` equal to or greater than 6?
condition met

Decide: is the reported value of pKi for `C[C@H](NC(=O)COc1cc(C(F)(F)F)c2c(-c3ccc(F)cc3)nn(C)c2n1)c1ccccc1` equal to or greater than 6?
condition met

Decide: is the reported value of pKi for `C[C@H](NC(=O)COc1cc(C(F)(F)F)c2c(-c3ccccc3)n[nH]c2n1)c1ccccc1` equal to or greater than 6?
condition met

Decide: is the reported value of pKi for `CCOc1ccc(CNC(=O)COc2cc(C)c3c(C4CC4)nn(C)c3n2)cc1` equal to or greater than 6?
condition not met

Decide: is the reported value of pKi for `Cc1cc(OCC(=O)N[C@@H](C)c2ccccc2)nc2c1c(-c1ccccc1)nn2C` equal to or greater than 6?
condition met

Decide: is the reported value of pKi for CCn1nccc1C(C)NC(=O)COc1cc(C(F)(F)F)c2c(-c3ccccc3)nn(C)c2n1 (stereo not shown) equal to or greater than 6?
condition met

###

# TESTED_SYSTEM: human orexin 1 receptors (Homo sapiens (Human), UniProt O43613)
# Sequence (O43613 whole entry): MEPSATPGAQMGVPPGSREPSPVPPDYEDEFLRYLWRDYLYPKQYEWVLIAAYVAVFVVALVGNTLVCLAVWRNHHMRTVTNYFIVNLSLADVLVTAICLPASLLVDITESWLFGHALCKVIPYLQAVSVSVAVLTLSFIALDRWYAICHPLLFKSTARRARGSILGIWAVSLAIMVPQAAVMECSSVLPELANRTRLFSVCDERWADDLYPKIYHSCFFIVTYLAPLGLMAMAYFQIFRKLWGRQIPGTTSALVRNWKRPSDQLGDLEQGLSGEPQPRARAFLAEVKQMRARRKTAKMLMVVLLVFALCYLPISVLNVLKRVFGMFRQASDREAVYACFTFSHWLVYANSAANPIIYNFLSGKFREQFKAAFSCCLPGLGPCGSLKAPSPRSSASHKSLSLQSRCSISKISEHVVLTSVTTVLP
# PROTOCOL_TEXT: Radioligand Binding Assay I ([125I]orexin A competition, cell membranes)
# CONDITION_DESCRIPTION: read-out: binding I hOx1R Kd
pKd: −log10 of the molar value.
Lab note: compare pKd against 7. Equal or greater, write Met. Smaller, write Not met.

Previously resolved entries follow.
compound=C[C@H](CNC(=O)COc1cc(C(F)(F)F)c2c(-c3ccccc3)nn(C)c2n1)c1ccccc1 tested_system="human orexin 1 receptors (Homo sapiens (Human), UniProt O43613)" assigned_category="Not met"
compound="COc1ccc(C(C)NC(=O)COc2cc(C(F)(F)F)c3c(-c4ccccc4)nn(C)c3n2)cn1 (centres unmarked)" tested_system="human orexin 1 receptors (Homo sapiens (Human), UniProt O43613)" assigned_category=Met
compound=Cn1nc(-c2ccccc2F)c2c(C(F)(F)F)cc(OCC(=O)N[C@H]3CCc4ccccc43)nc21 tested_system="human orexin 1 receptors (Homo sapiens (Human), UniProt O43613)" assigned_category="Not met"
compound="Cc1nn(C)c(C)c1C(C)NC(=O)COc1cc(C(F)(F)F)c2c(-c3ccccc3)nn(C)c2n1 (centres unmarked)" tested_system="human orexin 1 receptors (Homo sapiens (Human), UniProt O43613)" assigned_category=Met

Decide: is the reported value of pKd for `COc1ccc(CNC(=O)COc2cc(C(F)(F)F)c3c(-c4ccccc4)nn(C)c3n2)cc1` equal to or greater than 7?
Not met

Decide: is the reported value of pKd for COc1ccc(C(C)NC(=O)COc2cc(C(F)(F)F)c3c(-c4ccccc4)nn(C)c3n2)cc1 (centres unmarked) equal to or greater than 7?
Met

Decide: is the reported value of pKd for `Cc1cccc(-c2nn(C)c3nc(OCC(=O)N[C@@H](C)c4ccccc4)cc(C(F)(F)F)c23)c1` equal to or greater than 7?
Met

Reference source: patent US8742106B2
